Tested on: HepG2-ACTB-RAB5A
PROCEDURE_DETAILS: phenotypically active (imaging signature differs from DMSO and reproducible) at any of 0.3-9 uM (binary (1 = active, 0 = inactive)); higher = active
CONDITION_SET: treatment time: 24 h
Structures can show the parent of a compound that is named as a salt.
Can you answer with just one of these options? 1 = active, 0 = inactive

Use the examples below as a reference point.
> print(dat)
                                   molecule  class.assignment
1                       NCC1(CC(=O)O)CCCCC1                 0
2  COc1cc([C@@H]2c3cc4c(cc3[C@H](O)[C@H]3COC(=O)[C@H]23)OCO4)cc(OC)c1OC                 1
3                                 Nc1ccncc1                 0

Ask | Dear all, I need the recorded test outcome for CC[C@H]1C2C[C@H]3[C@@H]4N(C)c5ccccc5[C@]45C[C@H](C2[C@H]5O)N3[C@@H]1O (stereo partly drawn) , thank you.
Reply | 0

Ask | Dear all, I need the recorded test outcome for `CCn1cnc2c(Nc3cccc(Cl)c3)nc(N[C@H]3CCCC[C@H]3N)nc21` , thank you.
Reply | 1

Ask | Dear all, I need the recorded test outcome for N#CC(O[C@@H]1O[C@H](CO[C@@H]2O[C@H](CO)[C@@H](O)[C@H](O)[C@H]2O)[C@@H](O)[C@H](O)[C@H]1O)c1ccccc1 (stereo partly drawn) , thank you.
Reply | 0

Ask | Dear all, I need the recorded test outcome for `O=C1NC(=O)c2c1c1c3ccccc3n3c1c1c2c2ccccc2n1C1CCC3O1` , thank you.
Reply | 0

Ask | Dear all, I need the recorded test outcome for CN1[C@@H]2CC[C@H]1C[C@@H](OC(=O)C(CO)c1ccccc1)C2 (stereo partly drawn) [Atropine sulfate monohydrate] , thank you.
Reply | 0

====

System: A549-ACTB-RAB5A
PROCEDURE_DETAILS: phenotypically active (imaging signature differs from DMSO and reproducible) at any of 0.3-9 uM (binary (1 = active, 0 = inactive)); higher = active
CONDITION_SET: treatment time: 24 h
Can you answer with just one of these options? 1 (active), -1 (inactive)

> print(dat)
                                   molecule  class.assignment
1  C=C1[C@@H](C)[C@H]2[C@H](Cc3ccccc3)NC(=O)[C@]23OC(=O)C=C[C@H](O)CCC[C@@H](C)CC=C[C@H]3[C@@H]1O                 1
2   Cc1ccc(-c2nc3ccc(C)cn3c2CC(=O)N(C)C)cc1                -1
3  CC(C)CC(N(C)C)C1(c2ccc(Cl)cc2)CCC1 (stereo not drawn)                -1
4  O=C1C[C@@H]2OCC=C3C[N+]4([O-])CC[C@]56c7ccccc7N1[C@H]5[C@H]2[C@H]3C[C@@H]64 (stereo partly drawn)                -1
5  C[C@@H]1O[C@H](C[N+](C)(C)C)C[C@H]1O [(+)-Muscarine iodide]                -1

Ask | Dear all, I need the recorded test outcome for `CCN(C(C)=O)c1cccc(-c2ccnc3c(C#N)cnn23)c1` , thank you.
Reply | -1

Ask | Dear all, I need the recorded test outcome for C=C[C@H]1C[N@@]2CC[C@H]1C[C@H]2[C@H](O)c1ccnc2ccccc12 [(-)-Cinchonidine] , thank you.
Reply | -1

Ask | Dear all, I need the recorded test outcome for `C[C@@H]1CC[C@H]2[C@@H](C)C(=O)O[C@@H]3O[C@@]4(C)CC[C@@H]1[C@]32OO4` , thank you.
Reply | 1

====

System: HepG2-TUBA1B-RELA
PROCEDURE_DETAILS: phenotypically active (imaging signature differs from DMSO and reproducible) at any of 0.3-9 uM (binary (1 = active, 0 = inactive)); higher = active
CONDITION_SET: treatment time: 24 h
Can you answer with just one of these options? T (active), F (inactive)

Use the examples below as a reference point.
COMPOUND	CLASS_ASSIGNMENT
Cc1nnc2n1-c1ccc(Cl)cc1C(c1ccccc1)=NC2	F
CCCCCCCCCC(=O)O[C@H]1CC[C@H]2[C@@H]3CCC4=CC(=O)CC[C@@H]4[C@H]3CC[C@]12C [nandrolone-decanoate]	F
C[C@]12C/C(=C\O)C(=O)C[C@@H]1CC[C@@H]1[C@@H]2CC[C@@]2(C)[C@H]1CC[C@]2(C)O	F
O=c1ccc2ccc3occc3c2o1	F
Cc1cc2c(C(C)C)c(O)c(O)c(C=O)c2c(O)c1-c1c(C)cc2c(C(C)C)c(O)c(O)c(C=O)c2c1O	T
C/C=C(/C)C(=O)O[C@H]1CC[C@@]2(C)[C@@H]3CC[C@H]4[C@]5(O)C[C@H](O)[C@@]6(O)[C@@H](CN7C[C@@H](C)CC[C@H]7[C@@]6(C)O)[C@]5(O)C[C@@]42O[C@]13O	T

Ask | Dear all, I need the recorded test outcome for `O[C@H]1[C@H](O)[C@@H](O)CN2CC[C@H](O)[C@H]12` , thank you.
Reply | F

====

Test system: HepG2-GM130-SQSTM1
PROCEDURE_DETAILS: lowest phenotypically active concentration; higher = less potent
CONDITION_SET: treatment time: 24 h
Counter-ions that a name gives are not always drawn.
MEASUREMENT_TYPE: lowest phenotypically active concentration

See these solved cases before continuing.
COMPOUND	VAL
C/C=C(/C)C(=O)O[C@H]1C(C)=C2[C@H]([C@@H]1OC(=O)CCCCCCC)[C@@](C)(OC(C)=O)C[C@H](OC(=O)CCC)[C@@]1(O)[C@H]2OC(=O)[C@@]1(C)O [Thapsigargin]	≤ 0.3 µM
CC[C@H]1CN2CC[C@H]1C[C@@H]2[C@@H](O)c1ccnc2ccc(OC)cc12 [Hydroquinidine HCl]	9 µM
Cc1c(C(=O)c2cccc3ccccc23)c2cccc3c2n1[C@H](CN1CCOCC1)CO3 [WIN 55,212-2 mesylate]	9 µM
Cc1sc2c(c1C)C(c1ccc(Cl)cc1)=N[C@H](CC(=O)OC(C)(C)C)c1nnc(C)n1-2	9 µM
C[C@@H](CO)NC(=O)[C@@H]1C=C2c3cccc4[nH]cc(c34)C[C@H]2N(C)C1 [Ergobasine]	9 µM
CN1C[C@H](C(=O)N[C@]2(C)O[C@@]3(O)[C@@H]4CCCN4C(=O)[C@H](Cc4ccccc4)N3C2=O)C=C2c3cccc4[nH]cc(c34)C[C@H]21 [ergotamine]	3 µM
CCCCCC[C@H]1C(=O)O[C@H](C)[C@H](NC(=O)c2cccc(NC=O)c2O)C(=O)O[C@@H](C)[C@@H]1OC(=O)CC(C)C [antimycin a]	≤ 0.3 µM
COc1ccc(N(C(=O)Oc2c(C)cccc2C)c2ccnc(Nc3ccc(N4CCN(C)CC4)cc3)n2)c(OC)c1	3 µM

The compound listed as COc1cc([C@@H]2c3cc4c(cc3[C@H](O)[C@H]3COC(=O)[C@H]23)OCO4)cc(OC)c1OC [Podophyllotoxin] has a reported lowest phenotypically active concentration of ≤ 0.3 µM

The compound listed as CC(C)(C)c1cc(C=C(C#N)C#N)cc(C(C)(C)C)c1O [Malonoben] has a reported lowest phenotypically active concentration of 1 µM

====

// phenotypically active lookup, one value per entry
Test system: HepG2-CANX-COX4
PROCEDURE_DETAILS: phenotypically active (imaging signature differs from DMSO and reproducible) at any of 0.3-9 uM (binary (1 = active, 0 = inactive)); higher = active
CONDITION_SET: treatment time: 24 h
Counter-ions that a name gives are not always drawn.
Please state the value as a number alone, without comment.

See these solved cases before continuing.
MOLECULE	phenotypically active
CO[C@H](C)[C@](O)(C(=O)OCC1=CCN2CC[C@H](O)[C@@H]12)C(C)C	0
CNC(=O)Oc1ccc2c(c1)[C@]1(C)CCN(C)[C@@H]1N2C [Eserine sulfate, physostigmine sulfate]	0

The molecule listed as `COc1cc2c(c(OC)c1OC)-c1ccc(OC)c(=O)cc1[C@@H](NC(C)=O)CC2` has a reported phenotypically active of 1

The molecule listed as `C[C@@H]1CN([C@H]2CC[C@](C#N)(c3ccc(F)cc3)CC2)CC[C@]1(C(=O)O)c1ccccc1` has a reported phenotypically active of 0

The molecule listed as `C[C@@]1(CO)[C@H](O)CC[C@@]2(C)[C@H]1CC[C@H]1C[C@@H]3C[C@@]12CC[C@]3(O)CO` has a reported phenotypically active of 1

The molecule listed as `C[C@H]1O[C@@H](O[C@H]2[C@@H](O)C[C@H](O[C@H]3[C@@H](O)C[C@H](O[C@H]4CC[C@@]5(C)[C@H](CC[C@@H]6[C@@H]5CC[C@]5(C)[C@@H](C7=CC(=O)OC7)[C@@H](O)C[C@]65O)C4)O[C@@H]3C)O[C@@H]2C)C[C@H](O)[C@@H]1O` has a reported phenotypically active of 1

The molecule listed as `Cc1nnc2n1-c1ccc(Cl)cc1C(c1ccccc1)=NC2` has a reported phenotypically active of 0

The molecule listed as `C#CCN(C)[C@H](C)Cc1ccccc1` has a reported phenotypically active of 0

The molecule listed as CNCC(O)c1ccc(O)c(OC)c1 (stereo not drawn) [Metanephrine hydrochloride DL] has a reported phenotypically active of 0

The molecule listed as `O=C(O)CC[N+](=O)[O-]` has a reported phenotypically active of 0
